Values were extracted from paper PMC9604729.

- experimental_target: human (h) α3β2 nAChR (Homo sapiens, UniProt P17787+P32297)
- Construct: host or cells: Xenopus laevis oocytes, cRNA injected
- Sequence (P32297 32-505): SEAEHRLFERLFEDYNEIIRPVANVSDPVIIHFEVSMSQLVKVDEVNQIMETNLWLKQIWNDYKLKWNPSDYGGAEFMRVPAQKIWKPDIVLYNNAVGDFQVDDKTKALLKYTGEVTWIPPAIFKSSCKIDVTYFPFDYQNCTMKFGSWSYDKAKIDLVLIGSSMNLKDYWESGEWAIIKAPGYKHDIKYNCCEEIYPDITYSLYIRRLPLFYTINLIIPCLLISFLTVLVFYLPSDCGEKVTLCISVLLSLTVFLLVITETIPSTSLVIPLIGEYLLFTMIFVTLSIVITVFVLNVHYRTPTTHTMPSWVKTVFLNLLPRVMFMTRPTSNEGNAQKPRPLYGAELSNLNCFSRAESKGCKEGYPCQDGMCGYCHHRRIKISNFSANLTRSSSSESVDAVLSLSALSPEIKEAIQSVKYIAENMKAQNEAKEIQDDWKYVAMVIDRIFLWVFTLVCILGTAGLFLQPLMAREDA
- Sequence (P17787 26-502): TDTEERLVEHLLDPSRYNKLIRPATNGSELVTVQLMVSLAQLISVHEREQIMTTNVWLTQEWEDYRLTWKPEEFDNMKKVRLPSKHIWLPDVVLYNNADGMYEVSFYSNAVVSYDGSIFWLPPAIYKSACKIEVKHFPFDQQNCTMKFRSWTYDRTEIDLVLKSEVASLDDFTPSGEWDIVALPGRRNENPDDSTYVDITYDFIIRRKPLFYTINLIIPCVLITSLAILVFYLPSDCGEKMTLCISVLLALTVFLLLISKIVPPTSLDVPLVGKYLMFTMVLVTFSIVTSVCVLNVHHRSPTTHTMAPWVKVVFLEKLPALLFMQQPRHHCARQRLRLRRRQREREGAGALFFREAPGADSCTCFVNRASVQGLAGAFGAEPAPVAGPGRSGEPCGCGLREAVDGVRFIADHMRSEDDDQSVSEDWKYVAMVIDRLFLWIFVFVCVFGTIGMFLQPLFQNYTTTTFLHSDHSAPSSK
- test_name: Two-electrode voltage clamp, inhibition of ACh-evoked currents at hα3β2 nAChR in Xenopus oocytes
- Assay type: cell-based
- assay_context: compound 100 µM; currents activated by 6 μM ACh; ratio ACh + compound to ACh alone; mean ± SD, n = 6–11
Peptide text beside a SMILES is read from it.
Here, each record is paired with measured Relative current amplitude (h)α3β2 data.
# output: bare number, no unit

Report value only: Relative current amplitude (h)α3β2, human (h) α3β2 nAChR (Homo sapiens, UniProt P17787+P32297), CC(C)C(NC(=O)C(N)Cc1c[nH]c2ccccc12)C(=O)NC(C(=O)NC(Cc1ccccc1)C(=O)O)C(C)C (stereo not drawn) [Compound 1, psegynamide A] (H-WVVF-OH; configuration not given here)
0.435

* * *

- experimental_target: human (h) α3β2 nAChR (Homo sapiens, UniProt P17787+P32297)
- Construct: host or cells: Xenopus laevis oocytes, cRNA injected
- test_name: Two-electrode voltage clamp, inhibition of ACh-evoked currents at hα3β2 nAChR in Xenopus oocytes
- Format: cell-based
- assay_context: compound 100 µM; currents activated by 6 μM ACh; ratio ACh + compound to ACh alone; mean ± SD, n = 6–11
Square brackets hold non-standard residues; d marks the D form. Peptide text beside a SMILES is read from it. Tpi = O=C(O)[C@@H]1Cc2c([nH]c3ccccc23)CN1
Here, each record is paired with measured Relative current amplitude (h)α3β2 data.
# output: bare number, no unit

Below: 4 compounds and their reported Relative current amplitude (h)α3β2.
[
  {
    "compound": "COC(=O)[C@@H](Cc1ccc(O)cc1)NC(=O)[C@@H](NC(=O)[C@H](NC(=O)[C@@H]1Cc2c([nH]c3ccccc23)CN1)C(C)C)C(C)C [Compound 6, psegynamide F] (H-[Tpi][dV]V[dY]-OMe)",
    "Relative current amplitude (h)α3β2": 0.579
  },
  {
    "compound": "COC(=O)[C@@H](Cc1ccccc1)NC(=O)[C@@H](NC(=O)[C@H](NC(=O)[C@@H](N)Cc1c[nH]c2ccccc12)C(C)C)C(C)C [Compound 2, psegynamide B] (H-W[dV]V[dF]-OMe)",
    "Relative current amplitude (h)α3β2": 0.236
  },
  {
    "compound": "CC(C)[C@H](NC(=O)[C@H](NC(=O)[C@@H](N)Cc1c[nH]c2ccccc12)C(C)C)C(=O)N[C@H](Cc1ccc(O)cc1)C(=O)O [Compound 3, psegynamide C] (H-W[dV]V[dY]-OH)",
    "Relative current amplitude (h)α3β2": 0.451
  },
  {
    "compound": "COC(=O)[C@@H](Cc1ccccc1)NC(=O)[C@@H](NC(=O)[C@H](NC(=O)[C@@H]1Cc2c([nH]c3ccccc23)CN1)C(C)C)C(C)C [Compound 5, psegynamide E]",
    "Relative current amplitude (h)α3β2": 0.656
  }
]

Give me measured Relative current amplitude (h)α3β2, please, for this compound: CC(C)[C@H](NC(=O)[C@H](NC(=O)[C@@H]1Cc2c([nH]c3ccccc23)CN1)C(C)C)C(=O)N[C@H](Cc1ccccc1)C(=O)O [Compound 4, psegynamide D]
0.924
